Please go through the items and note down their flash point.
Give bare numbers, in °C.

// below: answered molecules
molecule	measurement-units	readout-value
CCCCCCC(C)(C)C(=O)OCC1CO1 (stereo not given) [oxiran-2-ylmethyl 2,2-dimethyloctanoate]	°C	129.00
CS(=O)(=O)O	°C	189.00
CCCCC(=O)O	°C	89.00
CCOP(=O)(OCC)SCCSCC.CCOP(=S)(OCC)OCCSCC	°C	45.00
C=CCN=C=S	°C	46.00

Hey, quick one: what's flash point for each of these?
1. CCCCCON=O
2. CCCCO.[Ti]
3. C=C[Si](Cl)(Cl)Cl [trichloro(ethenyl)silane]

Result:
10.00
77.00
21.00

Hey, quick one: what's flash point for each of these?
1. C=C(C)C(=O)OC(C)CO (stereo not given) [1-hydroxypropan-2-yl 2-methylprop-2-enoate]
2. CCC(C)(C)O
3. CC#N
4. CCCC[Si](Cl)(Cl)Cl
5. CCc1ccccc1O
6. C=CC(=O)OC(C)(C)C [tert-butyl prop-2-enoate]

Result:
1: 121.00; 2: 19.00; 3: 6.00; 4: 52.00; 5: 78.00; 6: 19.00

Hey, quick one: what's flash point for each of these?
1. CC(C)c1ccccc1O
2. COc1nn(CSP(=S)(OC)OC)c(=O)s1
3. CCc1cccc(CC)c1CC
4. O=CC1CC=CCC1 (stereo not given)
5. Cc1cc(O)ccc1Cl
6. CCCCCCCC(=O)OCC(COC(=O)CCCCCCC)OC(=O)CCCCCCC [2,3-di(octanoyloxy)propyl octanoate]
7. OCCOCCOCCO [2-[2-(2-hydroxyethoxy)ethoxy]ethanol]
8. CC(C)(C)Br

Result:
104.00
100.00
83.00
57.00
110.00
177.00
166.00
-16.00

----------
Please go through the items and note down their flash point.
Give bare numbers, in °C.

compound	flash point [°C]
C=C(CC)CC	-26
Cc1cc(C)c(C)c(C)c1	63
CCCCc1ccccc1	50
C=CC(C)CCC (stereo unspecified)	-18
CCCCCC(C)C(C)C (stereo unspecified)	36
C=CCC(C)CCC (stereo unspecified)	2
C=CCC1CCCCC1	29
C[C@@H]1CCC[C@H](C)C1 [cis-1,3-dimethylcyclohexane]	6

Hey, quick one: what's flash point for each of these?
1. C/C=C\CCCC [cis-2-heptene]
2. C1=CC2CCC1C2
3. CCCCC1CCCC1
4. C1CC[C@H]2CCCC[C@H]2C1 [cis-decalin]
5. C=CC(CC)CCC (stereo unspecified)
6. CC/C=C\CCC [cis-3-heptene]

Result:
[-8, -14, 35, 58, 1, -9]

Hey, quick one: what's flash point for each of these?
1. CC1(C)CCCCC1
2. CCC(C)CCC(C)C (stereo unspecified)
3. CCCCCCC(C)C

Result:
[7, 15, 24]

Hey, quick one: what's flash point for each of these?
1. C[C@@H]1CCCC[C@H]1C (relative stereo) [trans-1,2-dimethylcyclohexane]
2. C/C=C\C(C)C [cis-4-methyl-2-pentene]
3. CC#CCCCC
4. CCC(C)(C)c1ccccc1

Result:
1: 7; 2: -36; 3: 2; 4: 65

----------
Please go through the items and note down their flash point.
Numbers only, in °C.

// below: answered compounds
compound	flash point, °C
O=S1(=O)CCCC1 [thiolane 1,1-dioxide]	166.00
O=C(OCc1ccccc1)c1ccccc1O [benzyl 2-hydroxybenzoate]	180.00
O=C(Cl)OCc1ccccc1 [benzyl carbonochloridate]	108.00
c1ccc(-c2ccccc2-c2ccccc2)cc1	163.00
CCCCSP(SCCCC)SCCCC	146.00
CCOP(=S)(Oc1ccc([N+](=O)[O-])cc1)c1ccccc1 (configuration not stated)	30.00

We now examine a further compound.
Query: Would you mind telling me what flash point value was observed for `CCCCCl` ?
Result: -7.00

Where do the numbers come from? From a flash point compilation (Sun et al. 2020).
